Origin of values: the supplement of paper PMC10307832

Tested on: A-427
Experiment: relative viability (nuclei count vs DMSO), 5 days (fraction); higher = more cells survive
Conditions: first compound 0.05 µM
Consider the following molecules; for each one, report its relative viability.
Write no unit; give the number alone.

[Q] State its relative viability on A-427: Nc1ccn([C@@H]2O[C@H](CO)[C@@H](O)[C@@H]2O)c(=O)n1 [Cytarabine] + Nc1ncn([C@H]2C[C@H](O)[C@@H](CO)O2)c(=O)n1 [Decitabine] (partner 2 µM)
[A] 0.361

[Q] Hello, I am looking for reported relative viability with A-427 for Nc1ccn([C@@H]2O[C@H](CO)[C@@H](O)[C@@H]2O)c(=O)n1 [Cytarabine] + COc1cc2c(Oc3ccc(NC(=O)C4(C(=O)Nc5ccc(F)cc5)CC4)cc3F)ccnc2cc1OCCCN1CCOCC1 [Foretinib] (partner 0.25 µM) . Could you help?
[A] 0.296

[Q] Reported relative viability for A-427, given Nc1ccn([C@@H]2O[C@H](CO)[C@@H](O)[C@@H]2O)c(=O)n1 [Cytarabine] + CC(=O)c1c(C)c2cnc(Nc3ccc(N4CCNCC4)cn3)nc2n(C2CCCC2)c1=O [Palbociclib] (partner 0.5 µM) ?
[A] 0.363

[Q] Lab request: please report relative viability under test system A-427 for COc1cc2nccc(Oc3ccc(NC(=O)Nc4cc(C)on4)c(Cl)c3)c2cc1OC [Tivozanib] + CS(=O)(=O)CCNCc1ccc(-c2ccc3ncnc(Nc4ccc(OCc5cccc(F)c5)c(Cl)c4)c3c2)o1 [Lapatinib] (partner 2 µM)
[A] 1.04

[Q] Item Nc1ccn([C@@H]2O[C@H](CO)[C@@H](O)[C@@H]2O)c(=O)n1 [Cytarabine] + Cc1cc(Nc2cc(N3CCN(C)CC3)nc(Sc3ccc(NC(=O)C4CC4)cc3)n2)n[nH]1 [Tozasertib] (partner 0.1 µM) with A-427 - relative viability?
[A] 0.163

[Q] Query the reported relative viability for A-427; item: COc1cc2nccc(Oc3ccc(NC(=O)Nc4cc(C)on4)c(Cl)c3)c2cc1OC [Tivozanib] + Cc1nc(Nc2ncc(C(=O)Nc3c(C)cccc3Cl)s2)cc(N2CCN(CCO)CC2)n1 [Dasatinib] (partner 0.075 µM)
[A] 0.699

[Q] Param readout= relative viability; system= A-427; entry= COc1cc2nccc(Oc3ccc(NC(=O)Nc4cc(C)on4)c(Cl)c3)c2cc1OC [Tivozanib] + C[C@@H](Oc1cc(-c2cnn(C3CCNCC3)c2)cnc1N)c1c(Cl)ccc(F)c1Cl [Crizotinib] (partner 1 µM) ; returns value.
[A] 0.986

###

System: NCI-H520
Assay: relative viability (nuclei count vs DMSO), 5 days (fraction); higher = more cells survive
Details: first compound 2.53 µM
MEASUREMENT_TYPE: relative viability
The answer should be a number; do not append a unit.

[Q] Entry O=c1[nH]c2ccccc2n1C1CCN(CCCC(c2ccc(F)cc2)c2ccc(F)cc2)CC1 [Pimozide] + CS(=O)(=O)N1CCN(Cc2cc3nc(-c4cccc5[nH]ncc45)nc(N4CCOCC4)c3s2)CC1 [Pictilisib] (partner 1 µM) : reported relative viability = ?
[A] 0.256

[Q] Entry O=c1[nH]c2ccccc2n1C1CCN(CCCC(c2ccc(F)cc2)c2ccc(F)cc2)CC1 [Pimozide] + Nc1nc2[nH]cc(CCc3ccc(C(=O)N[C@@H](CCC(=O)O)C(=O)O)cc3)c2c(=O)[nH]1 [Pemetrexed] (partner 0.2 µM) : reported relative viability = ?
[A] 0.734

[Q] What value of measured relative viability is listed for O=c1[nH]c2ccccc2n1C1CCN(CCCC(c2ccc(F)cc2)c2ccc(F)cc2)CC1 [Pimozide] + C[C@]1(O)C[C@@H](c2nc(-c3ccc4ccc(-c5ccccc5)nc4c3)c3c(N)nccn32)C1 [Linsitinib] (partner 1 µM) ?
[A] 0.995

[Q] I am curious: what relative viability value has been reported for O=c1[nH]c2ccccc2n1C1CCN(CCCC(c2ccc(F)cc2)c2ccc(F)cc2)CC1 [Pimozide] + C[C@@H](Oc1cc(-c2cnn(C3CCNCC3)c2)cnc1N)c1c(Cl)ccc(F)c1Cl [Crizotinib] (partner 1 µM) ?
[A] 0.819

[Q] Query: relative viability; subject: Cc1cnc(-c2cnc(NCCNc3ccc(C#N)cn3)nc2-c2ccc(Cl)cc2Cl)[nH]1 + CS(=O)(=O)CCNCc1ccc(-c2ccc3ncnc(Nc4ccc(OCc5cccc(F)c5)c(Cl)c4)c3c2)o1 [Lapatinib] (partner 2 µM)
[A] 0.891

[Q] Endpoint output: relative viability of Cc1cnc(-c2cnc(NCCNc3ccc(C#N)cn3)nc2-c2ccc(Cl)cc2Cl)[nH]1 + CC(C)C[C@H](NC(=O)[C@H](Cc1ccccc1)NC(=O)c1cnccn1)B(O)O [Bortezomib] (partner 0.002 µM) . Value?
[A] 0.523

[Q] Name the recorded relative viability for Cc1cnc(-c2cnc(NCCNc3ccc(C#N)cn3)nc2-c2ccc(Cl)cc2Cl)[nH]1 + CCNC(=O)c1noc(-c2cc(C(C)C)c(O)cc2O)c1-c1ccc(CN2CCOCC2)cc1 [Luminespib] (partner 0.01 µM) .
[A] 0.208

[Q] relative viability lookup needed for Cc1cnc(-c2cnc(NCCNc3ccc(C#N)cn3)nc2-c2ccc(Cl)cc2Cl)[nH]1 + COc1cc2c(Oc3ccc(NC(=O)C4(C(=O)Nc5ccc(F)cc5)CC4)cc3F)ccnc2cc1OCCCN1CCOCC1 [Foretinib] (partner 0.25 µM) , thanks.
[A] 1.04

[Q] Need relative viability, item Cc1cnc(-c2cnc(NCCNc3ccc(C#N)cn3)nc2-c2ccc(Cl)cc2Cl)[nH]1 + COc1cccc2cc(-c3nc([C@H]4CC[C@H](C(=O)O)CC4)n4ncnc(N)c34)[nH]c12 [OSI-027] (partner 0.5 µM)
[A] 0.28

[Q] # relative viability lookup, item O=c1[nH]c2ccccc2n1C1CCN(CCCC(c2ccc(F)cc2)c2ccc(F)cc2)CC1 [Pimozide] + CC(=O)c1c(C)c2cnc(Nc3ccc(N4CCNCC4)cn3)nc2n(C2CCCC2)c1=O [Palbociclib] (partner 0.5 µM)
[A] 0.217

[Q] Sample O=c1[nH]c2ccccc2n1C1CCN(CCCC(c2ccc(F)cc2)c2ccc(F)cc2)CC1 [Pimozide] + CS(=O)(=O)CCNCc1ccc(-c2ccc3ncnc(Nc4ccc(OCc5cccc(F)c5)c(Cl)c4)c3c2)o1 [Lapatinib] (partner 2 µM) — what was its relative viability?
[A] 0.821

###

Kindly supply the reported relative viability values for the records listed here.
Test system: NCI-H441
Test: relative viability (nuclei count vs DMSO), 5 days (fraction); higher = more cells survive
Details: first compound 0.05 µM

[Q] Give recorded relative viability with NCI-H441 for the following molecule: Nc1ccn([C@@H]2O[C@H](CO)[C@@H](O)[C@@H]2O)c(=O)n1 [Cytarabine] + CC(C)C[C@H](NC(=O)[C@H](Cc1ccccc1)NC(=O)c1cnccn1)B(O)O [Bortezomib] (partner 0.002 µM)
[A] 0.483

[Q] # returns recorded relative viability (system: NCI-H441) for COc1cc2nccc(Oc3ccc(NC(=O)Nc4cc(C)on4)c(Cl)c3)c2cc1OC [Tivozanib] + C[C@]1(O)C[C@@H](c2nc(-c3ccc4ccc(-c5ccccc5)nc4c3)c3c(N)nccn32)C1 [Linsitinib] (partner 1 µM)
[A] 0.559

[Q] NCI-H441 / relative viability / Nc1ccn([C@@H]2O[C@H](CO)[C@@H](O)[C@@H]2O)c(=O)n1 [Cytarabine] + Nc1ncn([C@H]2C[C@H](O)[C@@H](CO)O2)c(=O)n1 [Decitabine] (partner 2 µM) : value?
[A] 0.268

[Q] Param readout= relative viability; system= NCI-H441; entry= COc1cc2nccc(Oc3ccc(NC(=O)Nc4cc(C)on4)c(Cl)c3)c2cc1OC [Tivozanib] + CC1(C)CCC(c2ccc(Cl)cc2)=C(CN2CCN(c3ccc(C(=O)NS(=O)(=O)c4ccc(N[C@H](CCN5CCOCC5)CSc5ccccc5)c(S(=O)(=O)C(F)(F)F)c4)cc3)CC2)C1 [Navitoclax] (partner 0.5 µM) ; returns value.
[A] 0.747

[Q] What reported relative viability corresponds to COc1cc2nccc(Oc3ccc(NC(=O)Nc4cc(C)on4)c(Cl)c3)c2cc1OC [Tivozanib] + NC(=O)Nc1cc(-c2cccc(F)c2)sc1C(=O)N[C@H]1CCCNC1 [AZD7762] (partner 0.2 µM) on NCI-H441?
[A] 1.28

[Q] Can you look up relative viability on NCI-H441 for Nc1ccn([C@@H]2O[C@H](CO)[C@@H](O)[C@@H]2O)c(=O)n1 [Cytarabine] + NC(=O)Nc1cc(-c2cccc(F)c2)sc1C(=O)N[C@H]1CCCNC1 [AZD7762] (partner 0.2 µM) ?
[A] 0.814

[Q] relative viability of COc1cc2nccc(Oc3ccc(NC(=O)Nc4cc(C)on4)c(Cl)c3)c2cc1OC [Tivozanib] + Cc1nc(NC(=O)N2CCC[C@H]2C(N)=O)sc1-c1ccnc(C(C)(C)C(F)(F)F)c1 [Alpelisib] (partner 2 µM) on NCI-H441?
[A] 0.57

[Q] Lab note: need relative viability for Nc1ccn([C@@H]2O[C@H](CO)[C@@H](O)[C@@H]2O)c(=O)n1 [Cytarabine] + Nc1nc2[nH]cc(CCc3ccc(C(=O)N[C@@H](CCC(=O)O)C(=O)O)cc3)c2c(=O)[nH]1 [Pemetrexed] (partner 0.2 µM) on NCI-H441, anyone have it?
[A] 0.331

[Q] Kindly state the measured relative viability obtained for COc1cc2nccc(Oc3ccc(NC(=O)Nc4cc(C)on4)c(Cl)c3)c2cc1OC [Tivozanib] + COc1cccc2cc(-c3nc([C@H]4CC[C@H](C(=O)O)CC4)n4ncnc(N)c34)[nH]c12 [OSI-027] (partner 0.5 µM) with NCI-H441.
[A] 0.78

[Q] Which relative viability is reported with NCI-H441 for this entry: COc1cc2nccc(Oc3ccc(NC(=O)Nc4cc(C)on4)c(Cl)c3)c2cc1OC [Tivozanib] + O=C(CCCCCCC(=O)Nc1ccccc1)NO [Vorinostat] (partner 1 µM) ?
[A] 0.743

[Q] Hello, I am looking for reported relative viability with NCI-H441 for COc1cc2nccc(Oc3ccc(NC(=O)Nc4cc(C)on4)c(Cl)c3)c2cc1OC [Tivozanib] + C[C@@H](Oc1cc(-c2cnn(C3CCNCC3)c2)cnc1N)c1c(Cl)ccc(F)c1Cl [Crizotinib] (partner 1 µM) . Could you help?
[A] 0.607
